Source listed as patent US20170296650A1.

system.under.test: T1, hCMV gH + gL + UL128 + UL130 + UL131A (5-member complex; HEK293T co-transfectant) (hCMV, UniProt P12824 24-743; P16832 31-278; P16837 1-171; P16772 1-214)
T1 construct: whole, on cells; in the functional rows it stands for the complex on virions or transduced cells of the strain or isolate named in the readout; also called gH/gL/UL128-131A complex; pentameric complex
measurement.protocol: cell competition; competitor 8C15-biotin
observed.property: Inhibition of binding (%)
Record the value in %, omitting the unit from your answer.

Some entries whose results are on file:
[
  {
    "binder": "7B13 (antibody, V domains shown, human IgG) VH: QVQLVESGGGVVQPGGSLRLSCAASGFSFSNYGMHWVRQAPGKGLEWVALIPSDGNYQYYTDSVKGRFTVSRDNSRNTLYLQMKSLRAEDTARYHCAHLGGGLFDFWGQGTLVTVSS VL: QSALNQPRSVSGSPGQSVSISCTGSSSDVGGYEFVSWYQHHPGKAPKLIIYDVDKRPSGVPDRFSGSRSGDTASLTISGLQAEDEADYYCYSSADTWVFGGGTKLTVL",
    "readout.value": 100
  },
  {
    "binder": "8J16 (antibody, V domains shown, human IgG; also called 8J16-biotin) VH: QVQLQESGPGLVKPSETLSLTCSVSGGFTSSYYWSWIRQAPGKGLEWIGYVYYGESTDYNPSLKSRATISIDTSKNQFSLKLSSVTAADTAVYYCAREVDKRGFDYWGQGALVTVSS VL: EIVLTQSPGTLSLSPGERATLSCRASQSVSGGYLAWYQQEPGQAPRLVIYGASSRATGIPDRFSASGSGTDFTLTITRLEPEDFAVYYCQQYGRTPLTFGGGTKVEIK",
    "readout.value": 100
  },
  {
    "binder": "8C15 (antibody, V domains shown, human IgG; also called 8C15-biotin) VH: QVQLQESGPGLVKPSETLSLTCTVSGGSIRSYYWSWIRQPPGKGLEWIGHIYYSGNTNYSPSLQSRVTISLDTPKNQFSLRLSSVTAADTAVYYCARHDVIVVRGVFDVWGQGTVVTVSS VL: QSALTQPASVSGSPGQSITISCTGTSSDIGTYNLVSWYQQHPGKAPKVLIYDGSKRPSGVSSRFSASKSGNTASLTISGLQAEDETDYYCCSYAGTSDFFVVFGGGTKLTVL",
    "readout.value": 100
  },
  {
    "binder": "7I13 (antibody, V domains shown, human IgG; also called 7113) VH: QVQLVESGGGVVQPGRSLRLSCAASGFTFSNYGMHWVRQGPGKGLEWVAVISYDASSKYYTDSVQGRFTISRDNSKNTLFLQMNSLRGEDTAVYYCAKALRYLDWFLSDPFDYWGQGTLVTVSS VL: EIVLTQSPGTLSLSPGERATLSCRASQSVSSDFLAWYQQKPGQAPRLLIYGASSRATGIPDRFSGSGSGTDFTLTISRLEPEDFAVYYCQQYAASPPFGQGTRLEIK",
    "readout.value": 0
  }
]

*Q* Please give measured Inhibition of binding (%) of the following entry: 2C12 (antibody, V domains shown, human IgG; also called 2C12-biotin) VH: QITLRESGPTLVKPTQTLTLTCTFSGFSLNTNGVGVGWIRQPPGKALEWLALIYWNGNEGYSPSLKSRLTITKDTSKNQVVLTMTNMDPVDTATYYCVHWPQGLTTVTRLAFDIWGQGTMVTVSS VL: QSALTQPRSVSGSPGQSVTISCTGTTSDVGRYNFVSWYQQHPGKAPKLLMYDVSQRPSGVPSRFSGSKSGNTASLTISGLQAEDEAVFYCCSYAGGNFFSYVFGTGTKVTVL
*A* 100

*Q* Please give measured Inhibition of binding (%) of the following entry: 9I6 (antibody, V domains shown, human IgG; also called 9I6-biotin; 916) VH: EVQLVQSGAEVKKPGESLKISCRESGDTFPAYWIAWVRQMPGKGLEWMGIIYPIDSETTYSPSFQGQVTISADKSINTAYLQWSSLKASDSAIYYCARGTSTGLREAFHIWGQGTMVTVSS VL: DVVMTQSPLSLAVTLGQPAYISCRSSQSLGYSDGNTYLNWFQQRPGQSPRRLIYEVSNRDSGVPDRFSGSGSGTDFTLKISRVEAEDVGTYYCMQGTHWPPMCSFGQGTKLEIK
*A* 100
